test system: Streptococcus pneumoniae; assay: Antibacterial activity against erythromycin-resistant Streptococcus pneumoniae AB11 expressing ermB and mefA genes after 24 hrs by broth dilution assay; format: functional; conditions: AB11, 24 h

{"Smiles Input": "CC[C@H]1OC(=O)[C@H](C)[C@@H](OC(=O)NCc2ccccc2Cl)[C@H](C)[C@@H](O[C@@H]2O[C@H](C)C[C@H](N(C)C)[C@H]2O)[C@](C)(OC)C[C@@H](C)/C(=N/OCc2ccccc2Cl)[C@H](C)[C@@H](O)[C@]1(C)O", "Study System": "Streptococcus pneumoniae", "Units Label": "µg/mL", "MIC": 128}
{"Smiles Input": "CCCCCCNC(=O)O[C@H]1[C@H](C)[C@@H](O[C@@H]2O[C@H](C)C[C@H](N(C)C)[C@H]2O)[C@](C)(OC)C[C@@H](C)/C(=N/OCc2ccccc2Cl)[C@H](C)[C@@H](O)[C@](C)(O)[C@@H](CC)OC(=O)[C@@H]1C", "Study System": "Streptococcus pneumoniae", "Units Label": "µg/mL", "MIC": 128}
{"Smiles Input": "CC[C@H]1OC(=O)[C@H](C)[C@@H](OC(=O)NCc2ccccc2)[C@H](C)[C@@H](O[C@@H]2O[C@H](C)C[C@H](N(C)C)[C@H]2O)[C@](C)(OC)C[C@@H](C)/C(=N/OCc2ccccc2Cl)[C@H](C)[C@@H](O)[C@]1(C)O", "Study System": "Streptococcus pneumoniae", "Units Label": "µg/mL", "MIC": 128}
{"Smiles Input": "CC[C@H]1OC(=O)[C@H](C)[C@@H](OC(=O)NCCc2ccc(F)cc2)[C@H](C)[C@@H](O[C@@H]2O[C@H](C)C[C@H](N(C)C)[C@H]2O)[C@](C)(OC)C[C@@H](C)/C(=N/OCc2ccccc2Cl)[C@H](C)[C@@H](O)[C@]1(C)O", "Study System": "Streptococcus pneumoniae", "Units Label": "µg/mL", "MIC": 128}
